meta.source: PubChem BioAssay

- testedSystem: Calcium-dependent protein kinase 4 (Plasmodium falciparum (isolate 3D7)) (UniProt Q8IBS5)
- Sequence (Q8IBS5 whole entry, looked up): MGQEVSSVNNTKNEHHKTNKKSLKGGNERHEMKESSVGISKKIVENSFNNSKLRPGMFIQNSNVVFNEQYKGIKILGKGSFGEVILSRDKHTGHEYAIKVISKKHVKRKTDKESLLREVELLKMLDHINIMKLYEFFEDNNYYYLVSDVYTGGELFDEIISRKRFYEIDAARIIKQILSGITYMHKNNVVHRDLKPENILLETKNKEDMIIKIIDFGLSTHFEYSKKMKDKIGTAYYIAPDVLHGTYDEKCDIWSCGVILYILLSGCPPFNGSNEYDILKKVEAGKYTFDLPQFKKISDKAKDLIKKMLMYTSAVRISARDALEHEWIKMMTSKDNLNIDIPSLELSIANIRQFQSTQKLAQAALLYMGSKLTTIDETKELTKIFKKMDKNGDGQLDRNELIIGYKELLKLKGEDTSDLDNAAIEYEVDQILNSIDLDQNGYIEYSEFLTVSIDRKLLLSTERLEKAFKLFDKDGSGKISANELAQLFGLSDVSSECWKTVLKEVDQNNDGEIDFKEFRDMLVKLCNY
- experimentalProtocol: PfCDPK4 kinase inhibitors, biochemical, TCAMS library (AID 1159588)
- testParameters: recombinant PfCDPK4, Kinase-Glo ATP depletion luminescence
Measured potencies and affinities stand elsewhere. Calls of active or inactive are those of the source. No cut-off is given here; in the data, nearly all actives have IC50 up to about 0.91 µM.
quantityKind: outcome

Answered cases to consult:
CC(=O)N1N=C(c2ccc(F)cc2)Sc2c1nc(-c1ccccc1)n2C(C)=O	inactive
O=C(CCN1C(=O)c2ccccc2C1=O)N1CCN(CC=Cc2ccccc2)CC1	inactive
Cc1ccc(NC(=O)c2ccc(CN3CCCN(Cc4cccc(O)c4)CC3)cc2)cc1F	inactive
C=CCc1ccccc1OCC(O)CN(C1CCCCC1)C1CCCCC1 (stereo not given)	inactive
COc1ccc(C(=O)CCC(=O)N(Cc2ccc(-c3ccc(CNCCc4ccccc4)cn3)cc2)C(C)CN(C)C)cc1F (stereo not given)	inactive

Query: Recorded outcome of O=C(Nc1cccc(-c2ccc(-c3nc4ccc(F)cc4[nH]3)s2)c1)c1cccnc1 , please.
Reply: inactive

Query: Please do the same for COc1cc(NC(=O)Nc2cc(C)nc3ccccc23)cc(OC)c1 as well.
Reply: inactive

Query: Please answer likewise for CCOc1ccc2nc3cc(NC(=O)c4ccco4)ccc3c(N)c2c1
Reply: inactive

Query: Can you check CO/C(=C\C=C\c1cc2cc(Cl)c(Cl)cc2[nH]1)C(=O)NCCCN1CC(C)N(C)CC1C (stereo not given) next?
Reply: inactive

Query: Record: CCCNCc1ccc(-c2ccc(CN(CCOC)C(=O)c3cnc(C)cn3)cc2)nc1
Reply: inactive
